Tested on: Lactobacillus paracasei
procedure summary: growth AUC relative to DMSO control (median of replicates) (fraction); higher = more growth (less inhibition), active = hit call of the paper
study conditions: 20 µM; 24 h
property name: growth AUC
Answer with a bare number; do not write a unit.

Cc1nn(C)c(F)c1C(=O)Nc1ccccc1C(C)CC(C)C (configuration not stated)    0.97
COc1ccccc1C(=O)NS(=O)(=O)c1ccc(C(=O)NC2CC2)cc1    1
CCOC(=O)c1nc(C(Cl)(Cl)Cl)n(-c2ccc(Cl)cc2Cl)n1    1
C#CC(C)N(C)C(=O)Nc1ccc(Cl)cc1 (configuration not stated)    1.02
FC(F)(F)c1cccc(C(c2ccccc2)(c2ccccc2)n2cncn2)c1    1.11

Incoming: Quick one: growth AUC for COC(=O)c1cccc(C)c1S(=O)(=O)NC(=O)Nc1nc(OCC(F)(F)F)nc(N(C)C)n1 ?
Outgoing: 0.936

Incoming: And CCN(Cc1c(F)cccc1Cl)c1c([N+](=O)[O-])cc(C(F)(F)F)cc1[N+](=O)[O-] ?
Outgoing: 1.03

====

# growth AUC values compiled below
System: Escherichia coli IAI1
procedure summary: growth AUC relative to DMSO control (median of replicates) (fraction); higher = more growth (less inhibition), active = hit call of the paper
study conditions: 20 µM; 24 h
Answer with a bare number; do not write a unit.

Known results for molecules:
O=C(Nc1ccc(F)cc1)c1cccc(Oc2cccc(C(F)(F)F)c2)n1    0.95
Cc1ccc(C)c(O)c1    1.01
Cl.NCCO/C=C/[C@H](N)C(=O)O    1.02
O=C(O)Cc1c(Cl)ccc(Cl)c1Cl    0.999
CCOCCOC(=O)C(C)Oc1ccc(Oc2ncc(C(F)(F)F)cc2Cl)cc1 (stereo unspecified)    0.986

Proceed to the following item.
Incoming: Quick one: growth AUC for CCOC(=O)NCCOc1ccc(Oc2ccccc2)cc1 ?
Outgoing: 0.976

====

# growth AUC values compiled below
Test system: Parabacteroides distasonis
procedure summary: growth AUC relative to DMSO control (median of replicates) (fraction); higher = more growth (less inhibition), active = hit call of the paper
study conditions: 20 µM; 24 h
Answer with a bare number; do not write a unit.

CCCCOCN(C(=O)CS(=O)(=O)[O-])c1c(CC)cccc1CC.[Na+]    1
CCC/C(=N\OCC)C1=C(O)CC(C2CCCSC2)CC1=O (stereo not given)    0.81
c1ccc2c(c1)Cc1ccccc1-2    0.962
c1ccc(Nc2ccccc2)cc1    1.02
CCCCCCCC/C=C\CCCCCCCC(N)=O    0.96
C[S+](C)CCC(=O)O.[Cl-]    0.959
CC(C)c1cccc2c(=O)c3ccccc3sc12    0.952
CC(C)N(C(=O)CS(=O)(=O)[O-])c1ccc(F)cc1.[Na+]    1.02
CCOC(=O)C1=NOC(c2ccccc2)(c2ccccc2)C1    1.14
S=C([S-])NCCNC(=S)[S-].[Mn+2]    1.02

Incoming: Quick one: growth AUC for CCCCCCC(C)OC(=O)COc1nc(F)c(Cl)c(N)c1Cl (stereo not given) ?
Outgoing: 0.919

Incoming: And CCOC(N)=O ?
Outgoing: 1.1

Incoming: And c1ccc2cc3c(ccc4ccccc43)cc2c1 ?
Outgoing: 0.961

Incoming: And COC1CCC2(CC1)NC(=O)C(c1cc(C)ccc1C)C2O (stereo not given) ?
Outgoing: 1.07

Incoming: And COC(=O)CCCOc1ccc(Cl)cc1Cl ?
Outgoing: 0.791

Incoming: And NC(=S)Nc1cccc2ccccc12 ?
Outgoing: 1.05

Incoming: And CC(Oc1ccc(Cl)cc1Cl)C(=O)NC(C)(C#N)C(C)C (stereo not given) ?
Outgoing: 0.65

Incoming: And c1ccc2c(c1)-c1cccc3c1c-2cc1ccccc13 ?
Outgoing: 1.31
